test system: OVCAR-5 ovarian; experiment: NCI tumour cell line growth inhibition, 48 h
ASSAY_ENDPOINT: TGI

compound=NC(=O)c1n[nH]n(-c2ccccc2)c1=O assay_endpoint=TGI result="> 100 µM"
compound=CC[N+](CC)=c1ccc2nc3c(cc(NCc4ccccc4)c4ccccc43)oc-2c1 assay_endpoint=TGI result="2.19 µM"
compound=O=C1/C(=C/c2ccccc2)SC(=Nc2ccccc2)N1Nc1ccccc1 assay_endpoint=TGI result="> 100 µM"
compound="NC1=NC(c2ccccc2)N=C(Nc2ccccc2)N1 (stereo unspecified)" assay_endpoint=TGI result="> 100 µM"
compound="C/C=C(\\C)C(=O)O[C@@H]1C(O)[C@H]2OC(COC(=O)CCC(=O)CCCCCC[C@H](CCCCC)O[C@@H]3OC(C)[C@H](OC(C)=O)C(O)[C@H]3O2)[C@H]1OC(=O)/C=C/c1ccccc1 (stereo partly specified)" assay_endpoint=TGI result="> 64.2 µM"

// below: TGI requested for another compound
Challenge: Look up OVCAR-5 ovarian data: TGI of CC(SC(=S)N1CCCCC1)C(=O)Nc1nnc(-c2ccc(Cl)cc2)o1 (stereo unspecified) , then report it.
Response given: > 100 µM
